Tested on: Mycobacterium tuberculosis
measurement.notes: Antitubercular activity against isoniazid,streptomycin,rifampicin,ethambutol,para-aminosalicylate,prothionamide,capreomycin-resistant Mycobacterium tuberculosis 14862 assessed as bacterial growth inhibition
Format: functional
readout.label: MIC (µg/mL)
Lab book: enter the figure in µg/mL, no units written.

Examples with answers:
{"columns": ["structure.notation", "measure.unit", "MIC"],
 "data": [
  ["COc1ccc(-n2nccc2NS(=O)(=O)c2ccc(N)cc2)cc1", "µg/mL", 10.6],
  ["Nc1ccc(S(=O)(=O)Nc2ccnn2-c2ccccc2)cc1", "µg/mL", 12.6],
  ["Cc1ccc(-n2nccc2NS(=O)(=O)c2ccc(N)cc2)cc1", "µg/mL", 11.9]
]}

Now turn to the next compound.
MIC reported for this compound `Nc1ccc(S(=O)(=O)Nc2ccnn2-c2ccc(F)cc2)cc1` : 10.9

Values were extracted from ChEMBL document CHEMBL4732257.
